Subject Of Test: UniProt O43614
Sequence (O43614 whole entry): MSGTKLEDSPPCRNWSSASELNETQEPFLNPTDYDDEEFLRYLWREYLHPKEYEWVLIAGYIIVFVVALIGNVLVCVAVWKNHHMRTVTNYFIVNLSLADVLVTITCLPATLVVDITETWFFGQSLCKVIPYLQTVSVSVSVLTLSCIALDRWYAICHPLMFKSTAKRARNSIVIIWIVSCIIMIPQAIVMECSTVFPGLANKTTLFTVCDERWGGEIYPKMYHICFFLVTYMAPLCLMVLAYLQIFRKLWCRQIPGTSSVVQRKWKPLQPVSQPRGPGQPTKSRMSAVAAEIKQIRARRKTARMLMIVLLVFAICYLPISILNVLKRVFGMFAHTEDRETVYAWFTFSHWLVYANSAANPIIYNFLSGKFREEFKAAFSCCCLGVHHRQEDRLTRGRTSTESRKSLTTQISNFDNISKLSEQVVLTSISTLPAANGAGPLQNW
Experiment Description: Human orexin 2 receptor radioligand binding ([3H]-EMPA competition, HEK293 membranes)
Test Context: human orexin 2 receptor; Table 2, averages from between 2-20 runs; read-out: hOX2 Ki
// reported pKi for each item listed
Keep in mind that pKi stands for -log10 of concentration in molar terms.

[[record]]
compound = "Cc1cccc(C(=O)N2C3CCC2C(Oc2ccc(C(F)(F)F)cn2)C3)c1-n1nccn1 (racemic) [Example 422]"
result = 5.67


QUERY: Requested field: pKi. Item: Cc1cccc(C(=O)N2[C@@H]3CC[C@H]2[C@H](Nc2ncc(Br)cn2)C3)c1-c1ncco1 [Example 314]
RESULT: 6.46

QUERY: Tell me the measured pKi of Cc1cnc(C(=O)N2[C@@H]3CC[C@H]2[C@H](Nc2ncc(C(F)(F)F)cc2F)C3)c(-n2nccn2)c1 [Example 420] , please.
RESULT: 6.05

QUERY: Reported pKi, compound O=C(c1ccccc1-c1ncc(F)cn1)N1[C@@H]2CC[C@H]1[C@H](Nc1ccc(C(F)(F)F)cn1)C2 [Example 374] : ____
RESULT: 6.04

QUERY: What pKi value was documented for this compound, O=C(c1ccccc1-n1nccn1)N1C2CCC1C(Oc1ccc(C(F)(F)F)cn1)C2 (racemic) [Example 421] ?
RESULT: 5.38

QUERY: Which pKi value is on record for CN(c1ccc(C(F)(F)F)cn1)[C@@H]1C[C@H]2CC[C@@H]1N2C(=O)c1cccc(F)c1-c1ncccn1 [Example 377] ?
RESULT: 5.05

QUERY: Item O=C(c1cccc(F)c1-c1ncco1)N1[C@@H]2CC[C@H]1[C@H](Nc1ccc(C(F)(F)F)cn1)C2 [Example 298] has what recorded pKi?
RESULT: 6.30

QUERY: Please report the recorded pKi for O=C(c1cccc(F)c1-c1ncccn1)N1[C@@H]2CC[C@H]1[C@H](Nc1cnc(Br)cn1)C2 [Example 309] .
RESULT: 5.96
